- TEST SYSTEM: full-length human PKCι (Homo sapiens, UniProt P41743)
- Construct: Recombinant, full-length human PKCι expressed in Sf21 insect cells is also commercially available; purchased; host or cells: Sf21 insect cells
- ASSAY EXPLANATION: PKCι IC50 IMAP fluorescence polarisation assay, full-length enzyme
- Format: biochemical
- STATED CONDITIONS: full length PKCi at 15 μM ATP; read-out: IC50 in IMAP assay against full length PKCi
MEASURED ATTRIBUTE: IC50

>>> measurement("N[C@H](CNc1nc(-c2ccncc2)nc2c(/C=C/C3CC3)csc12)Cc1ccccc1")
"< 100 nM"
>>> measurement("N[C@H](CNc1nc(-c2ccncc2)nc2c(-c3ccon3)csc12)Cc1ccccc1")
"100 to 1000 nM"
>>> measurement("N[C@H](CNc1nc(-c2ccncc2)nc2c(C#CCCF)csc12)Cc1ccccc1")
"100 to 1000 nM"

Look up IC50 of N[C@H](CNc1nc(-c2ccncc2Cl)nc2ccsc12)Cc1ccccc1 and report it. 1000 to 10000 nM

---

- TEST SYSTEM: full-length human PKCι (Homo sapiens, UniProt P41743)
- Construct: Recombinant, full-length human PKCι expressed in Sf21 insect cells is also commercially available; purchased; host or cells: Sf21 insect cells
- Sequence (P41743 1-596): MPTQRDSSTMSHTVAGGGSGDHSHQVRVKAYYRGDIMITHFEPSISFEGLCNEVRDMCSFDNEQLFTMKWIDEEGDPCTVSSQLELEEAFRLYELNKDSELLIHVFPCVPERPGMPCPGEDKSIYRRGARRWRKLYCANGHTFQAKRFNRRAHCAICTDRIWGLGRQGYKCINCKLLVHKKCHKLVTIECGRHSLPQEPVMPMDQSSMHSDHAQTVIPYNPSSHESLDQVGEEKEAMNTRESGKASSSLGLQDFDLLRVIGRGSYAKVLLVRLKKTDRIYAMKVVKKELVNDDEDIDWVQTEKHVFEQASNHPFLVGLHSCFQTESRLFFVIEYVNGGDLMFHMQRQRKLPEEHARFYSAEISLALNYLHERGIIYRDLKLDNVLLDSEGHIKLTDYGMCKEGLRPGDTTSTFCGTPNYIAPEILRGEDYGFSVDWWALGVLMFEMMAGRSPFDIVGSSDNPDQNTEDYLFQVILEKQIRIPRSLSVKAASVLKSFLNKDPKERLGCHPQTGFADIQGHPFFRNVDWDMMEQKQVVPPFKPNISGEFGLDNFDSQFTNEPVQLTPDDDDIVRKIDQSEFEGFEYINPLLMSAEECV
- ASSAY EXPLANATION: PKCι IC50 IMAP fluorescence polarisation assay, full-length enzyme
- Format: biochemical
- STATED CONDITIONS: full length PKCi at 15 μM ATP; read-out: IC50 in IMAP assay against full length PKCi
Below is a list of entries, each paired with its recorded IC50 value.

>>> measurement("F[C@@H]1CNC[C@@H]1Nc1nc(-c2ccncc2)nc2ccsc12")
"10000 to 40000 nM"
>>> measurement("NC(CNc1nc(-c2ccncc2F)nc2c(-c3cncnc3)csc12)Cc1ccccc1 (stereo in doubt)")
"1000 to 10000 nM"
>>> measurement("O=C(Nc1cc(-c2nc(N[C@@H]3CCNC3)c3sccc3n2)ccn1)c1cnccn1")
"1000 to 10000 nM"
>>> measurement("Fc1cnccc1-c1nc(N[C@@H]2CCNC2)c2sccc2n1")
"10000 to 40000 nM"
>>> measurement("N[C@H](CNc1nc(-c2ccncc2)nc2c(-c3cc(C4CC4)[nH]n3)csc12)Cc1ccccc1")
"100 to 1000 nM"

Let us move to another entry and its IC50.
Look up IC50 of Cc1sc2c(NC[C@H](C)N)nc(-c3ccncc3)nc2c1Br and report it. 1000 to 10000 nM

---

Below is a list of entries, each paired with its recorded IC50 value.
- TEST SYSTEM: full-length human PKCι (Homo sapiens)
- Construct: Recombinant, full-length human PKCι expressed in Sf21 insect cells is also commercially available; purchased; host or cells: Sf21 insect cells
- Sequence (P41743 1-596): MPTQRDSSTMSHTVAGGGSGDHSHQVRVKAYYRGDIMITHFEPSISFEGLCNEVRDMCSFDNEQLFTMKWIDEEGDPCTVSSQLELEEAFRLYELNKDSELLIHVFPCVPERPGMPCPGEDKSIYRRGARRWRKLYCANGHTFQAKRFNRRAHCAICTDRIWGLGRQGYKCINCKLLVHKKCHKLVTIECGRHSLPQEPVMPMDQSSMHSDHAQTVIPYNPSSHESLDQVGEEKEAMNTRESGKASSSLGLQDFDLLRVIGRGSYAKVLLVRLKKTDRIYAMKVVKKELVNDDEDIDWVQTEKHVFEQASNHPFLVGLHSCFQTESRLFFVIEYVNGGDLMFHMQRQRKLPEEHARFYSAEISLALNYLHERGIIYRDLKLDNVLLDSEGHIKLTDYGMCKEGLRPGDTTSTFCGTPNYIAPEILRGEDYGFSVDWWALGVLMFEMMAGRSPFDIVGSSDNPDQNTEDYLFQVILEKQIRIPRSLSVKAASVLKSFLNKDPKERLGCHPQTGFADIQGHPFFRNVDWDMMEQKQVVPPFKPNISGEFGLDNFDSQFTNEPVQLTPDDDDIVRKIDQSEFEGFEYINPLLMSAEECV
- ASSAY EXPLANATION: PKCι IC50 IMAP fluorescence polarisation assay, full-length enzyme
- Type: biochemical
- STATED CONDITIONS: full length PKCi at 15 μM ATP; read-out: IC50 in IMAP assay against full length PKCi (Activity)

Here's what some known entries look like.
>>> measurement("NCCNc1nc(-c2ccncc2)nc2sc3c(c12)CCN(C(=O)C1CC1)C3")
"10 to 40 µM"
>>> measurement("CC(C)C(=O)N1CCc2c(sc3nc(-c4ccncc4)nc(NCCN)c23)C1")
"10 to 40 µM"
>>> measurement("COc1ccccc1C[C@H](N)CNc1nc(-c2ccncc2)nc2sc3c(c12)CCCC3")
"1 to 10 µM"

Let us move to another entry and its IC50.
Look up IC50 of N[C@H](CNc1nc(-c2ccncc2)nc2sc3c(c12)CCOC3)Cc1ccccc1 and report it. 1 to 10 µM

---

Below is a list of entries, each paired with its recorded IC50 value.
- TEST SYSTEM: full-length human PKCι (Homo sapiens, UniProt P41743)
- Construct: Recombinant, full-length human PKCι expressed in Sf21 insect cells is also commercially available; purchased; host or cells: Sf21 insect cells
- ASSAY EXPLANATION: PKCι IC50 IMAP fluorescence polarisation assay, full-length enzyme
- Type: biochemical
- STATED CONDITIONS: full length PKCi at 15 μM ATP; read-out: IC50 in IMAP assay against full length PKCi

Here's what some known entries look like.
>>> measurement("COC(C)(C)C#Cc1csc2c(NC[C@@H](N)Cc3ccccc3)nc(-c3ccncc3)nc12")
"100 to 1000 nM"
>>> measurement("c1cc(-c2nc(N[C@@H]3CCNC3)c3sccc3n2)cc(Nc2ccc(N3CCCCC3)cc2)n1")
"100 to 1000 nM"
>>> measurement("C[C@H](N)CNc1nc(-c2ccncc2F)nc2ccsc12")
"10000 to 40000 nM"

Look up IC50 of COc1ccncc1-c1c(C)sc2c(NC[C@@H](N)Cc3ccccc3)nc(-c3ccncc3)nc12 and report it. 10000 to 40000 nM

Look up IC50 of c1cc(-c2nc(N[C@@H]3CCNC3)c3sccc3n2)cc(NCC2CC2)n1 and report it. 1000 to 10000 nM

Look up IC50 of NCCNc1nc(-c2ccncc2)nc2c(-c3ccc(Br)cc3)csc12 and report it. 1000 to 10000 nM

Look up IC50 of CN1CC[C@@H](Nc2nc(-c3ccnc(NC(=O)c4cccs4)c3)nc3ccsc23)C1 and report it. 1000 to 10000 nM

Look up IC50 of Cc1sc2c(N[C@@H]3CCNC3)nc(-c3ccncc3)nc2c1Br and report it. 100 to 1000 nM

---

Below is a list of entries, each paired with its recorded pIC50 value.
- TEST SYSTEM: full-length human PKCι (Homo sapiens, UniProt P41743)
- Construct: Recombinant, full-length human PKCι expressed in Sf21 insect cells is also commercially available; purchased; host or cells: Sf21 insect cells
- ASSAY EXPLANATION: PKCι IC50 IMAP fluorescence polarisation assay, full-length enzyme
- Assay type: biochemical
- STATED CONDITIONS: full length PKCi at 15 μM ATP; read-out: IC50 in IMAP assay against full length PKCi (Activity)
pIC50: −log10 of the molar value.

>>> measurement("N[C@H](CNc1nc(-c2ccncc2)nc2sc3c(c12)CCCC3)Cc1cscn1 [compound 59]")
"6.00 to 7.00"
>>> measurement("N[C@@H](CNc1nc(-c2ccncc2)nc2sc3c(c12)CCCC3)Cc1csc2ccccc12 [compound 61]")
"5.00 to 6.00"
>>> measurement("CC(C)(C)C[C@H](N)CNc1nc(-c2ccncc2)nc2sc3c(c12)CCCC3 [compound 60]")
"5.00 to 6.00"

Let us move to another entry and its pIC50.
Look up pIC50 of c1ccc(C[C@H]2CN(c3nc(-c4cn[nH]c4)nc4sc5c(c34)CCCC5)CCN2)cc1 [compound 196] and report it. 5.00 to 6.00
